# procedure_summary: NCI Yeast Anticancer Drug Screen. Data for the mec2-1 strain (AID 157)
# study_conditions: S. cerevisiae mec2-1 strain, at 5.0 µM (retest, dose inferred, filed as 0.5), stronger effect = higher value
The panel holds about 79,000 compounds, 15% with a hit somewhere; the sample as a whole holds those more often.
Please note: Y applies when growth inhibition is 10% or greater, and N applies otherwise.

Worked examples follow.
Does the reported growth inhibition for `CC(=O)N(c1ccccc1)C(C)C` fall at or above the 10% mark?
N

Does the reported growth inhibition for `ClC1(Cl)c2ccccc2-c2ccccc21` fall at or above the 10% mark?
N

Does the reported growth inhibition for `Cc1cc(C)c(N2C(=O)C=CC2=O)c(C)c1` fall at or above the 10% mark?
Y

Does the reported growth inhibition for C=C1CC[C@@H](Br)C(C)(C)[C@]12CCC(C)(O)C(Cl)C2 (some centres not stated) fall at or above the 10% mark?
Y

Does the reported growth inhibition for `CCCCCc1cc(C(=O)OC/C(C)=N/O)c2ccccc2n1` fall at or above the 10% mark?
N

***
Does the reported growth inhibition for `c1ccc2cc3c(ccc4cccc[n+]43)cc2c1` fall at or above the 10% mark?
Y

Does the reported growth inhibition for `O=C(CNC(=O)Nc1ccc(NC(=O)NCC(=O)Nc2ccc(C3=NCCN3)cc2)cc1)Nc1ccc(C2=NCCN2)cc1` fall at or above the 10% mark?
N

Does the reported growth inhibition for `Cc1cccc2c(CBr)cc(=O)[nH]c12` fall at or above the 10% mark?
Y

Does the reported growth inhibition for CCOCCC(=O)N1c2ccccc2CC1c1c[nH]c2ccccc12 (configuration not stated) fall at or above the 10% mark?
N

Does the reported growth inhibition for `Cc1ccnc2sc3ccccc3c(=O)c12` fall at or above the 10% mark?
Y

Does the reported growth inhibition for `NN=C(CC(O)(C(F)(F)Cl)C(F)(F)Cl)CC(O)(C(F)(F)Cl)C(F)(F)Cl` fall at or above the 10% mark?
Y

Does the reported growth inhibition for `CC(=O)Nc1ccc(-c2csc(Nc3ccnc4cc(Cl)ccc34)n2)cc1` fall at or above the 10% mark?
N

====

# procedure_summary: NCI Yeast Anticancer Drug Screen. Data for the mlh1 rad18 strain (AID 175)
# study_conditions: S. cerevisiae mlh1 rad18 strain growth inhibition; at 50.0 µM (retest, dose inferred, filed as 5.0)
# Protocol: Growth inhibition of yeast strains with defined genetic alterations is measured as a screen for potential anti-cancer activity. Selected strains with alterations in DNA damage repair or cell cycle control were exposed to compounds and growth inhibition was measured relative to vehicle treated controls. The strain used in this assay is mlh1 rad18
Compounds without any hit were thinned out: in the full panel of roughly 79,000, 15% have a hit. Active and inactive are the calls of the source. Cut-off read from the data, not from the text of the source: active = growth inhibition above about 70%; inactive = the rest.
Pick from t for active, f for inactive when you respond.

Worked examples follow.
Just curious, what result did CC(C)(C)Oc1ccc(CC(NC(=O)OCC2c3ccccc3-c3ccccc32)C(=O)O)cc1 (stereo not given) get here?
t

Just curious, what result did CC(O)C1CCCC[N+]1(C)C (stereo not given) get here?
f

Just curious, what result did `O=[N+]([O-])c1ccc(N/N=C/c2cccnc2)cc1` get here?
f

***
Just curious, what result did `O=C(Nc1c(Cl)cccc1Cl)Oc1c(Br)cc(Br)cc1Br` get here?
t

Just curious, what result did `COc1ccc2nc3cc(Cl)ccc3c(NCCC[N+](C)(C)CCCCCCCCCCCCCCCC[N+](C)(C)CCCNc3c4ccc(Cl)cc4nc4ccc(OC)cc34)c2c1` get here?
t
